- system-under-test: recombinant human ACC1 (rhACC1) (Homo sapiens, UniProt Q13085, DEL44-44)
- Construct: recombinant baculovirus containing full length human ACC1 cDNA
- protocol: recombinant hACC1 Transcreener ADP detection FP assay
- condition-notes: 50 μM ATP, 30 μM acetyl-CoA
1 (yes) if IC50 is below 20 nM. 0 (no) if not; exact matches included in 0 (no).

Answered examples (5):
CC(C)n1ncc2c1C(=O)CC1(CCN(C(=O)c3cnc4c(C(N)=O)c[nH]c4c3)CC1)C2 [Example 3] :: 0 (no)
CC(C)(C)n1cc2c(n1)C(=O)CC1(CCN(C(=O)c3ccc4[nH]c(N)nc4c3)CC1)C2 [Example 35] :: 1 (yes)
COc1cc2cc(C(=O)N3CCC4(CC3)CC(=O)c3c(cnn3C(C)C)C4)cnc2cc1C(N)=O [Example 22] :: 0 (no)
CC(C)(C)n1cc2c(n1)C(=O)CC1(CCN(C(=O)c3cnc4ccc(OCC(N)=O)cc4c3)CC1)C2 [Example 46] :: 1 (yes)
CC(C)(C)n1cc2c(n1)C(=O)CC1(CCN(C(=O)c3cnc4c(C(N)=O)c[nH]c4c3)CC1)C2 [Example 45] :: 0 (no)

QUERY: Does the reported IC50 of the following molecule sit strictly below 20 nM? NC(=O)c1n[nH]c2ccc(C(=O)N3CCC4(CC3)CC(=O)c3c(cnn3C35CC(C3)C5)C4)cc12 [Example 49]
RESULT: 1 (yes)

QUERY: Does the reported IC50 of the following molecule sit strictly below 20 nM? CC(C)(C)n1cc2c(n1)C(=O)CC1(CCN(C(=O)c3ccc4[nH]nc(C#N)c4c3)CC1)C2 [Example 43]
RESULT: 1 (yes)

The measured values listed here are drawn from patent US8802688B2.
